The compounds listed here are annotated with their absolute EC50 for viability.
# Test system: BMSC (primary human bone marrow mesenchymal stromal cells)
# test protocol: absolute EC50 for viability; higher = less sensitive

{"smiles data": "O=c1ncn2nc(Sc3ccc(F)cc3F)ccc2c1-c1c(Cl)cccc1Cl", "tested system": "BMSC (primary human bone marrow mesenchymal stromal cells)", "absolute EC50 for viability": "> 10 µM"}
{"smiles data": "CC(C)C[C@H](NC(=O)[C@@H](COC(C)(C)C)NC(=O)[C@H](Cc1ccc(O)cc1)NC(=O)[C@H](CO)NC(=O)[C@H](Cc1c[nH]c2ccccc12)NC(=O)[C@H](Cc1cnc[nH]1)NC(=O)[C@@H]1CCC(=O)N1)C(=O)N[C@@H](CCCNC(=N)N)C(=O)N1CCC[C@H]1C(=O)NNC(N)=O", "tested system": "BMSC (primary human bone marrow mesenchymal stromal cells)", "absolute EC50 for viability": "> 10 µM"}
{"smiles data": "C[C@@H](Oc1cc(-c2cnn(C3CCNCC3)c2)cnc1N)c1c(Cl)ccc(F)c1Cl", "tested system": "BMSC (primary human bone marrow mesenchymal stromal cells)", "absolute EC50 for viability": "> 1 µM"}
{"smiles data": "O=C(c1cccc(Cl)c1F)N1CCN(Cc2cccc(Nc3nccs3)n2)CC1", "tested system": "BMSC (primary human bone marrow mesenchymal stromal cells)", "absolute EC50 for viability": "> 10 µM"}
{"smiles data": "CN(C(=O)c1ccc(F)cc1C(F)(F)F)C1CCN(c2nnc(-c3ccnn3C)c3ccccc23)CC1", "tested system": "BMSC (primary human bone marrow mesenchymal stromal cells)", "absolute EC50 for viability": "> 10 µM"}
{"smiles data": "CN1CCN(C(=O)c2ccc3cc(CCNc4ncnc5ccc(C#N)cc45)ccc3c2)CC1", "tested system": "BMSC (primary human bone marrow mesenchymal stromal cells)", "absolute EC50 for viability": "> 1 µM"}
{"smiles data": "O=c1[nH]c(=O)n([C@H]2C[C@H](O)[C@@H](CO)O2)cc1F", "tested system": "BMSC (primary human bone marrow mesenchymal stromal cells)", "absolute EC50 for viability": "> 10 µM"}
{"smiles data": "CCc1cc2c(cc1N1CCC(N3CCOCC3)CC1)C(C)(C)c1[nH]c3cc(C#N)ccc3c1C2=O", "tested system": "BMSC (primary human bone marrow mesenchymal stromal cells)", "absolute EC50 for viability": "> 1 µM"}
{"smiles data": "O=C(Nc1cc(Oc2cc(F)c(NC(=O)C3(C(=O)Nc4ccc(F)cc4)CC3)cc2F)ccn1)C1CC1", "tested system": "BMSC (primary human bone marrow mesenchymal stromal cells)", "absolute EC50 for viability": "> 10 µM"}
